Test system: A549/ATCC NSCLC
Assay: NCI-60 one-dose screen, 48 h
Conditions: 10 µM unless noted
The panel holds about 83,000 compounds, 20% with a hit somewhere; the sample as a whole holds those more often. Activity calls are given as the source filed them. The calls were made as follows: active = growth percent below 10; inactive = the rest.
Outcomes: YES (active), NO (inactive)

| molecule | answer.label |
| --- | --- |
| C=C(C)[C@@H]1CC[C@]2(C(=O)NCCNCCNC(=O)OC(C)(C)C)CC[C@]3(C)[C@H](CC[C@@H]4[C@@]5(C)CCC(=O)C(C)(C)[C@@H]5CC[C@]43C)[C@@H]12 | NO |
| O=C1NC(=O)C(Cc2ccccc2)(Cc2ccccc2)N1 | NO |
| O=C(Nc1ccccc1)Nc1ccc(C(=O)/C=C/c2ccc(N3CCCC3)cc2)cc1 | NO |
| CC/C=C(\C)C(CCC)(CN=O)C(=O)OCC (configuration not stated) | NO |
| COc1cc(C)cc2oc3oc(=O)c(-c4nc5ccccc5s4)cc3c(=O)c12 | NO |
| COc1ccc2c(c1)C(C)Cc1c(Cl)nc(C)nc1N2C (configuration not stated) | NO |
| CC1(C)C(=NO)C(C)(C)C1=NO | NO |
| COc1cc(NCc2cn(-c3ccc(C(=O)O)cc3)nc2-c2ccc(C(=O)O)cc2)cc(OC)c1OC | NO |
| CCCSc1nc(N)nc2nc[nH]c12 | NO |
| COc1ccc(C2CC(c3cc(OC)c(OC)c(OC)c3)=NN2C(C)=O)cc1OCC(=O)Nc1nc2ccc(C(F)(F)F)cc2s1 (configuration not stated) | NO |
| O=C1COCCN1c1ccc(Nc2nc(Cl)nc(N3CCOCC3)n2)cc1 | NO |
| C=C(C)[C@@H]1CC[C@]2(C(=O)OC)CC[C@]3(C)[C@H](CC[C@@H]4[C@@]5(C)CC/C(=N\OCCC(=NCCC#N)NOCCC#N)C(C)(C)[C@@H]5CC[C@]43C)[C@@H]12 | NO |
| C[n+]1cccc(NC(=O)c2ccc3ccc4ccc(C(=O)Nc5ccc[n+](C)c5)nc4c3n2)c1 | YES |
| N#C/C(C(=O)c1ccccc1)=C1/C(=O)Nc2ccc(Br)cc21 | NO |
| COC(=O)c1c(C)[nH]c(/C=C2\N=C(c3ccc[nH]3)C=C2OC)c1C | YES |
| COc1ccc(/C=C(/C2=NCCN2)n2ccc3ccccc32)cc1 | NO |
| CC1(C(=O)O)CCC(N)(C(=O)O)C1(C)C (configuration not stated) | NO |
| COc1ccc2nc3c(cc2c1)C(=O)CC(C(F)(F)F)C3 (configuration not stated) | NO |
| Cc1cnc(N)nc1OCCNC(=O)c1cccc(-c2ccc(S(=O)(=O)Nc3ccc4c(c3)N(C(=O)C3CC3)CCC4)cc2)c1 | NO |
| C[n+]1c2ccccc2nc2c(N)cc(N)cc21 | NO |
| CC(C)C1=NOC(=O)C1=Cc1cn(-c2ccccc2)nc1-c1cccc([N+](=O)[O-])c1 | NO |
| CC(C)[C@H]1CCC2=C3CC[C@]45OC(=O)[C@@]6(CCC(C)(C)C[C@H]64)CC[C@@]5(C)[C@]3(C)CC[C@@]21C | NO |
| CCOC(=O)c1nn(C2CCCCO2)c2ccc(NC(=O)CN3CCOCC3)cc12 (configuration not stated) | NO |
| CC(=O)O.CC(=O)O.O.[Fe] | NO |
| CC(=O)n1cc(C=O)c2ccccc21 | NO |
| c1coc2occoc=2o1 | NO |
| COc1ccc(C(C(=O)O)c2ccc(OC)cc2)cc1 | NO |
| O=c1[nH]cnc2c1ccn2C1OC(CO)C(O)C1O (configuration not stated) | NO |
| O=S(=O)(NCCCNc1nccc(-c2c(-c3cccc(F)c3)nc3occn23)n1)c1cccc2ccccc12 | NO |
| CC(C)[C@H]1COC(=O)N1[C@@H]1C(=O)N([C@@H](CCC(=O)N2CCN(C3CCCC3)CC2)C(=O)N[C@@H]2CCCc3ccccc32)[C@@H]1/C=C/c1cccc(Cl)c1 | NO |
| O=c1cc(-c2ccccc2)oc2c(O)c(O)ccc12 | NO |
| C[C@H]1[C@H](C)CC[C@]2(C(=O)N3CCN(C)CC3)CC[C@]3(C)C(=CC[C@@H]4[C@@]5(C)C/C(=C/c6ccco6)C(=O)C(C)(C)[C@@H]5CC[C@]43C)[C@H]12 | NO |
| CC(=O)Nc1ccc2nc3ccc(NC(C)=O)cc3[n+](-c3ccccc3)c2c1 | NO |
| CCCCCCCCCCCCNC(=S)N/N=C/c1ccccc1O | NO |
| CC(C)[N+](C)(C)CC(O)COc1cccc2ccccc12 (configuration not stated) | NO |
| CCOc1cccc2c(NC(C)CCCN(CC)CC)c(C)cnc12 (configuration not stated) | NO |
| CC(C)=CCC[C@](C)(O)[C@H]1CC[C@]2(C)[C@@H]1CC[C@@H]1[C@@]3(C)CC[C@H](OC(=O)CCC(=O)O)C(C)(C)[C@@H]3CC[C@]12C | NO |

---

Test system: HCT-15 colon
Experiment: NCI-60 one-dose screen, 48 h (100 = growth as untreated, 0 = no growth, -100 = all killed)
Settings: 10 µM unless noted
About 83,000 compounds went through this panel and 20% of them were active in at least one assay; those are over-represented in the sample as a whole. Active and inactive are the calls of the source. Rule for the calls: active = growth percent below 10; inactive = the rest.
Each item that follows carries a reported growth.

| compound | measured.on | growth |
| --- | --- | --- |
| CC(C)C1=NOC(=O)C1=Cc1cn(-c2cccnc2)nc1-c1ccccc1 | HCT-15 colon | 94.2% (inactive) |
| Cc1cccc([N+](=O)[O-])c1I | HCT-15 colon | 113% (inactive) |
| O=S(=O)(/N=c1/n(-c2ccccc2)nc2n1CCN2C1=NCCN1)c1ccc(-c2ccccc2)cc1 | HCT-15 colon | 99.4% (inactive) |
| O=C(C[n+]1ccn(CC(OCc2ccc(Cl)cc2Cl)c2ccc(Cl)cc2Cl)c1)c1ccc(F)cc1 (stereo not drawn) | HCT-15 colon | 75.7% (inactive) |
| COc1ccc(-c2cc(-c3ccccc3)nc(SCCCCCC(=O)NO)n2)cc1 | HCT-15 colon | 78.1% (inactive) |
| C=C1C(=O)O[C@H]2[C@H]1CC/C(COC(=O)NCc1ccc(Cn3c(=O)sn(-c4ccc(Cl)cc4)c3=O)cc1)=C\CC[C@@]1(C)O[C@@H]21 | HCT-15 colon | 54.5% (inactive) |
| Cc1cc(C)c(S(=O)(=O)/N=c2/n(-c3ccccc3)nc3n2CCN3C2=NCCN2)c(C)c1 | HCT-15 colon | 90.1% (inactive) |
| C=C(C)[C@@H]1CC[C@]2(C(=O)NCCNCCNC(=O)OC(C)(C)C)CC[C@]3(C)[C@H](CC[C@@H]4[C@@]5(C)CCC(=O)C(C)(C)[C@@H]5CC[C@]43C)[C@@H]12 | HCT-15 colon | 50.4% [100 µM] (inactive) |

---

Test system: LOX IMVI melanoma
Test: NCI-60 one-dose screen, 48 h (100 = growth as untreated, 0 = no growth, -100 = all killed)
Conditions: 10 µM unless noted
About 83,000 compounds went through this panel and 20% of them were active in at least one assay; those are over-represented in the sample as a whole.
Consider the cut-off 80%. If the recorded growth is strictly smaller, the label is yes; if not, the label is no.

| input.smiles | answer.label |
| --- | --- |
| Cn1cc(-c2nnc(-c3ccccc3)s2)c2cc(Br)cnc21 | no |
| Cc1cnc(N)nc1OCC(C)(C)CNC(=O)c1cccc(-c2ccc(S(=O)(=O)Nc3ccc4c(c3)N(C(=O)C3CC3)CCC4)cc2)c1 | yes |
| O=C1COCCN1c1ccc(NCc2cn(Cc3cccc4ccccc34)c3ccccc23)cc1 | no |
| CNC(=O)c1cc(Oc2ccc3nc(NC(=O)c4ccc5ncccc5c4)sc3c2)ccn1 | no |
| CC(C)C1=NOC(=O)C1=Cc1cn(-c2ccco2)nc1-c1ccccc1 | yes |
| CC1=C/C(=C(\c2cc(C)c(O)c(C(=O)O)c2)c2c(Cl)cccc2Cl)C=C(C(=O)O)C1=O | no |
| O=[N+]([O-])c1cccc(/C=C/c2ccc3ccccc3n2)c1 | yes |
| Cc1ccc(N)c(O)c1 | no |
| COc1ccc(/C=C(/C2=NCCN2)n2ccc3ccccc32)cc1 | no |
| CSc1nc(=S)c2nc(SC)n(-c3ccccc3)c2[nH]1 | no |

---

System: SK-MEL-2 melanoma
Experiment: NCI-60 one-dose screen, 48 h
Settings: 10 µM unless noted
About 83,000 compounds went through this panel and 20% of them were active in at least one assay; those are over-represented in the sample as a whole. Calls of active or inactive are those of the source. Rule for the calls: active = growth percent below 10; inactive = the rest.
Outcomes: true (1) for active, false (0) for inactive

| compound | answer.label |
| --- | --- |
| O=C(N=c1n(-c2ccccc2)nc2n1CCN2C1=NCCN1C(=O)c1ccc(Cl)cc1)c1ccc(Cl)cc1 | false (0) |
| C=CCCCCOc1ccccc1-c1cnc(OCCCCC=C)n1C | false (0) |
| CC[C@@](C)(NC(=O)[C@H](C)NC(=O)CCNC(=O)C(C)(C)NC(=O)[C@H](C)NC(=O)[C@@H]1CCCN1C(=O)[C@@](C)(CC)NC(=O)[C@H](Cc1ccccc1)NC(=O)C1CCCN1C(=O)C(C)(C)NC(=O)C1CCCN1C(=O)C(C)(C)NC(C)=O)C(=O)NCCC(=O)N[C@@H](CC(C)C)C(=O)NC(C)(C)C(=O)NCCC(=O)N[C@@H](CC(C)C)C(=O)NC(C)(C)C(=O)NC(C)(C)C(=O)N[C@@H](CC(C)C)C(=O)NCCC(=O)NCO (some centres not stated) | true (1) |
| C=C(CC(=O)OC)C(C)=O | false (0) |
| C=C(C)[C@@H]1CC[C@]2(COC(=O)c3ccccc3C(=O)O)CC[C@]3(C)[C@H](CC[C@@H]4[C@@]5(C)CC[C@H](OC(=O)c6ccccc6C(=O)O)C(C)(C)[C@@H]5CC[C@]43C)[C@@H]12 | false (0) |
| COc1ccc(/C=C(/C2=NCCN2)n2ccc3ccccc32)cc1 | false (0) |
| N#Cc1c(Cl)nc(SCC2CO2)nc1-c1ccccc1 (configuration not stated) | false (0) |

Just for reference, PubChem BioAssay (NCI) is where these values come from.
